Known IC50 of a selection of compounds
- Tested on: HTT
- experiment notes: RT-qPCR splicing assay, HTT AJ/CJ mRNA
- Assay type: cell-based, human
- applied conditions: Homo sapiens, 24 h, decrease in canonical junction mRNA, A673 or K562 cells

Previously resolved entries follow.
c1cnn(-c2ccc3c(c2)COc2nc(N4CC5(CCCNC5)C4)ccc2-3)c1 > 10000 nM
COc1cc(-c2ccc3c(c2)COc2nc(N4CC[C@H](NC(C)(C)C)C4)ncc2-3)cnn1 100 to 1000 nM
COc1cc(-c2ccc3c(c2)COc2nc(N4CCN[C@H](C5CC5)C4)ccc2-3)cnn1 < 100 nM

// returns IC50 for Fc1cc2c(cc1-c1cn[nH]c1)COc1nc(O[C@@H]3C[C@H]4CC(F)(F)[C@@H](C3)N4)ccc1-2 with HTT; value = < 100 nM

====

Listed below: pIC50 values for each entry.
- System: HTT
- experiment notes: RT-qPCR splicing assay, HTT AJ/CJ mRNA
- Type: cell-based, human
- applied conditions: Homo sapiens, 24 h, decrease in canonical junction mRNA, A673 or K562 cells
pIC50: −log10 of the molar value.

Solved entries (count: 7):
molecule	pIC50
CN(c1ccc2c(n1)OCc1cc(-n3cccn3)ccc1-2)C1CCNCC1	< 5.00
COc1cc(-c2cc3c(cc2F)-c2ccc(N(C)[C@@H]4C[C@H]5CC[C@@H](C4)N5)nc2OC3)cnn1	> 7.00
CN1C[C@@H]2[C@H](C1)[C@H]2N(C)c1ccc2c(n1)OCc1cc(-n3cccn3)ccc1-2	< 5.00
CC(C)(C)NC1CCN(c2ccc3c(n2)OCc2cc(-n4cccn4)ccc2-3)C1 (centres unmarked)	6.00 to 7.00
COc1cc(-c2ccc3c(c2)COc2nc(N4CCN5CCCC5C4)ccc2-3)cnn1 (centres unmarked)	6.00 to 7.00
c1cnn(-c2ccc3c(c2)COc2nc(N4CCC(NC5CC5)C4)ccc2-3)n1 (centres unmarked)	5.00 to 6.00
CC(C)Oc1cnnc(-c2ccc3c(c2)COc2nc(N4CCC(NC(C)(C)C)C4)ccc2-3)c1 (centres unmarked)	< 5.00

We now examine a further molecule.
Sample CC1(C)CC(Nc2ccc3c(n2)CCOc2cc(-c4cn[nH]c4)ccc2-3)CC(C)(C)N1 ; pIC50 observed: < 5.00

====

- System: HTT
- experiment notes: Gene panel canonical junction qPCR assay, HTT CJ mRNA (Table 7)
- Format: cell-based, human
- applied conditions: Homo sapiens, read-out: HTT CJ mRNA decrease IC50
pIC50: −log10 of the molar value.
quantity: pIC50

Sample answers from the record:
molecule	pIC50
CC1(C)CC(Nc2ccc3c(c2)COc2cc(-n4cccn4)ccc2-3)CC(C)(C)N1	< 5.00
CN(c1ccc2c(n1)OCc1cc(-c3cnn(C)c(=O)c3)ccc1-2)[C@@H]1C[C@H]2CC[C@@H](C1)N2	> 7.00
CN(c1ccc2c(n1)OCc1cc(-n3cccn3)ccc1-2)[C@@H]1C[C@H]2CC[C@@H](C1)N2	6.00 to 7.00

Input CCN(C)C1CCN(c2ccc3c(n2)OCc2cc(-c4cnnc(OC)c4)ccc2-3)C1 (centres unmarked) . Output pIC50: 6.00 to 7.00

The molecule listed as CNC1CCN(c2ccc3c(n2)OCc2cc(-c4cnnc(OC)c4)ccc2-3)CC1 has a reported pIC50 of 5.00 to 6.00
